Quick reference: EC50 of the listed items.
Molecular target: human M4 muscarinic acetylcholine receptor (Homo sapiens)
Sequence (P08173 whole entry): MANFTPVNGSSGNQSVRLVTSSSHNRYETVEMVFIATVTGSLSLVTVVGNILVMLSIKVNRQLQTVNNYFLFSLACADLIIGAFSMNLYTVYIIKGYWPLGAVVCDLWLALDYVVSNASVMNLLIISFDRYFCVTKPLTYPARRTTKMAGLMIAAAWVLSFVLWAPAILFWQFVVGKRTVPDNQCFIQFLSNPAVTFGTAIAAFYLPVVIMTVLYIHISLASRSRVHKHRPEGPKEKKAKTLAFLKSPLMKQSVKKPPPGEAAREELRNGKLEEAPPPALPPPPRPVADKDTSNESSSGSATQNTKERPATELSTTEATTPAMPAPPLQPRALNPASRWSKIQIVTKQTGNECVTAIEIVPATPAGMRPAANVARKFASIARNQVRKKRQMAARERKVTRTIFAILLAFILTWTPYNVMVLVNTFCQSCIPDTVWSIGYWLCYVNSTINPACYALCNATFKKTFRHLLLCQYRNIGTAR
Experiment: human FLIPR-based M4 PAM assay (calcium mobilization, CHO-K1 cells with human M4 receptor and Gαqi5)
Settings: inflection point (IP) of dose response curve, acetylcholine added at 20% of maximum response, read-out: M4 FLIPPR Hu IP

Compound: CC1(Cc2ncc(-c3cc4c(nc3-c3cnc5c(c3)C(=O)NC5)C(F)CC4)o2)CCCC1 (single isomer, unassigned) [Example 45]
EC50 / µM: 0.042
--
Compound: Cc1cn2ccc(-c3nc(C#N)ccc3-c3cnc(CC4CC(F)(F)C4)o3)cc2n1 [Example 98]
EC50 / µM: 0.036
--
Compound: Cc1nc2cc(-c3nc(C#N)ccc3-c3cnc(CC(C)(C)C(F)(F)F)o3)ccc2n1C [Example 111]
EC50 / µM: 0.114
--
Compound: Cc1ccc(-c2cnc(CC3CCCC3)o2)c(-c2ccc3cccnc3c2)n1 [Example 1]
EC50 / µM: 0.007
--
Compound: CC(CCc1ncc(-c2ccc(C#N)nc2-c2ccn3ccnc3c2)o1)C(F)(F)F (centres unmarked) [Example 40]
EC50 / µM: 0.046
--
Compound: COc1cc2ccc(-c3nc(C)ccc3-c3cnc(C(F)(F)C4CCCC4)o3)cc2nn1 [Example 102]
EC50 / µM: 0.051
--
Compound: CC(C)CCc1ncc(-c2ccc(C#N)nc2-c2ccc3cccnc3c2)o1 [Example 31]
EC50 / µM: 0.043
--
Compound: Cc1ccc(-c2cnc(CC3CCCC3)o2)c(N2CCn3ccnc3C2)n1 [Example 56]
EC50 / µM: 0.011
